B1: glmS ribozyme (parent)
chain: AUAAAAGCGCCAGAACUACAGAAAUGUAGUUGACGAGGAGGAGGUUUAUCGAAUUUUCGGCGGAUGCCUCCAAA

Variants of: B1
Experiment: self-cleavage kobs at 640 uM GlcN6P; higher = faster cleavage; RNA array
Conditions: with glucosamine-6-phosphate
Variants at the floor of the assay were thinned out.
measureName: self-cleavage kobs at 640 uM GlcN6P (s⁻¹)
Express it in s⁻¹; write the number only.

Study these solved cases before continuing.
U47A U56A	0.00196
G40U U56A	0.000381

Indicate the recorded self-cleavage kobs at 640 uM GlcN6P value for this variant: C10U C58G C67A
0.000107

Quick one: give measured self-cleavage kobs at 640 uM GlcN6P for G29C U31C
5.78e-05

Recall and state the measured self-cleavage kobs at 640 uM GlcN6P for U30G G40C .
0.000265

For A12U G40C , write its self-cleavage kobs at 640 uM GlcN6P.
0.0014

Indicate the recorded self-cleavage kobs at 640 uM GlcN6P value for this variant: G32A C67G
4.83e-05

Determine from records and report self-cleavage kobs at 640 uM GlcN6P for U30C G32U
9.97e-05

Tell me self-cleavage kobs at 640 uM GlcN6P reported for A6U U55C
5.6e-05

Give the reported self-cleavage kobs at 640 uM GlcN6P for this variant. A15C U31C
0.000359

Check the records and state self-cleavage kobs at 640 uM GlcN6P for A42C C67A
5.06e-05

# return recorded self-cleavage kobs at 640 uM GlcN6P for input G40C A53U C70U
9.65e-05

Read the entry A39C U55C and write its reported self-cleavage kobs at 640 uM GlcN6P.
0.00144

Supply measured self-cleavage kobs at 640 uM GlcN6P of G37A A53U in your reply.
0.000367

Please give the documented self-cleavage kobs at 640 uM GlcN6P of G37A U54G U69A
0.000103

Give the reported value of self-cleavage kobs at 640 uM GlcN6P for this record: A33C A42G
0.000127

Note down self-cleavage kobs at 640 uM GlcN6P recorded for U31C C70G
3.34e-05

Return reported self-cleavage kobs at 640 uM GlcN6P. Input variant: C50U C70G
8.51e-05
